For each of the sequences below, state its PBM 8-mer E-score.
system: 2Sp-muMax20 (muMax20 with two 2,6-bis(methyl)pyridine Cys staples); test: PBM 8-mer E-score (E-score (rank enrichment, -0.5 to 0.5)); higher = stronger preferential binding
Over roughly 33,000 sequences, “E-score (rank enrichment, -0.5 to 0.5)” has its median near -0.0043; the highest 2% begin near 0.24. Only a selection was taken, and the highest values are over-represented in it overall.
Form field (numeric): enter value without unit.

Q: Could you tell me which PBM 8-mer E-score is on file for `GGCGGGGA` ?
Ans: 0.327

Q: Same read-out for `CGCATGCG` ?
Ans: 0.286

Q: Okay, and `AGCATGAT` ?
Ans: 0.131

Q: Thanks! And `AGGTTCTA` ?
Ans: -0.106

Q: Same thing, different sequence: `AGTGCATG`
Ans: 0.0577

Q: Field entry: `CGCATGCC`
Ans: 0.189

Q: What do we get for `AGAGCCCG` ?
Ans: -0.276

Q: Next up: `AGCATGAC`
Ans: 0.243

Q: How about this sequence: `GGCGGGAA`
Ans: 0.0758

Q: Same read-out for `ATGACTTC` ?
Ans: 0.112

Q: Next entry: `CCTAGTAG`
Ans: 0.00183

Q: Then this sequence: `ACTTCCGG`
Ans: -0.229

Q: Query `CGCTCCGC` next
Ans: -0.154

Q: // query: `CCAATTGC`
Ans: 0.108

Q: Also, `GGACGTGA` please.
Ans: -0.181

Q: Please answer likewise for `AACGCGTT`
Ans: 0.0704

Q: Param item: `AGGCGGGA`
Ans: 0.0612

Q: Let us now turn to `GCACGTGC`
Ans: 0.472

Q: Repeat with `CGGCGGGA`
Ans: -0.183

Q: Ok, now `GAACGTGA`
Ans: -0.0484

Q: Here is the next sequence: `CGTGGGTC`
Ans: 0.00478

Q: Also, `TATCCCGA` please.
Ans: -0.0363

Q: Now try `AGCCACGG` .
Ans: -0.231

Q: # repeat for `CCCATGCG`
Ans: 0.0929

Q: Then what about the sequence `ACATTCAG` ?
Ans: 0.0112

Q: Same read-out for `GCGCCTCC` ?
Ans: 0.111

Q: Next record, please: `TGTGCAAA`
Ans: -0.0258

Q: How about this sequence: `ATCGAAGC`
Ans: -0.0587

Q: Request: `CCTAGTTA`
Ans: 0.0579

Q: Try `CGGAATGA` next.
Ans: -0.155

Q: For `ACCATGCT` then?
Ans: 0.211

Q: And for `AACGAGCC` ?
Ans: -0.0314

Q: `CACGGCGC` , same question.
Ans: -0.0163

Q: Subsequent entry: `CCAAGCAC`
Ans: 0.235

Q: Also `CTTCCCCA` , if possible.
Ans: 0.0675

Q: Then `AGCATGCG` ?
Ans: 0.275

Q: Continue with `GAAGCCGA`
Ans: -0.13

Q: Likewise for `AAGGTTTA` ?
Ans: -0.18

Q: Moving on to the next sequence: `CCGAATAA`
Ans: 0.0378

Q: And for `GGGAATGA` ?
Ans: 0.26

Q: Item: `AGAAACAA`
Ans: 0.23

Q: Quick one: `CACGCAAC`
Ans: -0.0734

Q: What do we get for `GAAAATGC` ?
Ans: 0.127

Q: Moving on to `AGCGTATA`
Ans: 0.0565

Q: Further, for `AGCATGCT` ?
Ans: 0.332

Q: Same again, this time with `GCAATTGA`
Ans: 0.0718
